- Tested on: Bacillus subtilis
- measurementProtocol: cleaved RNA product abundance (RNA/gDNA barcode ratio) relative to median wild-type variant (ratio to wild type); higher = more accumulation of the downstream cleavage product
- studyConditions: experiment (reporter, strain, medium): exp 4a: truncated aprE reporter, strain BJT201 with 2% xylose (RNase J1 expressed); cleavage site: cggR-gapA (positions -7 to +36 mutated)
Hi there, I'd appreciate the recorded cleaved RNA product abundance for every entry that follows.
One number for each entry.

A selection of reference data follows.
{"sequenceContent": "ACAGACGAAGGAGCCGCAAAGAAGTTATTAAGGGATGAATAATACCTCAATATACATATCTCTCACTTATTTAAA", "cleaved RNA product abundance": 0.123}
{"sequenceContent": "ACAGACGAAGGAGCCGCATAGAATTTATTAAGGGATGAATAATCCCTCAATATAAATATCTCTCACTTATTTAAA", "cleaved RNA product abundance": 0.514}
{"sequenceContent": "ACAGACGAAGGAGCCGCAAAAAAGTTATTAAGGGATCAATAATCCCTCAATATAAATATCTCTCACTTATTTAAA", "cleaved RNA product abundance": 0.712}
{"sequenceContent": "ACAGACGAAGGAGCCGCAAAGAAGTTATTAAGGAATGAATAATCCCTCAAAATAAATATCTCTCACTTATTTAAA", "cleaved RNA product abundance": 0.122}
{"sequenceContent": "ACAGACGAAGGAGCCGCAAAGAAGTTATTAAGGGATGAATAATCCCTAAATATAAATATCTCTCACTTATTTAAA", "cleaved RNA product abundance": 0.72}
{"sequenceContent": "ACAGACGAAGGAGCCGCAAAGAAGTTATTAAGGCATGAATAATCCCTCAATATTAATATCTCTCACTTATTTAAA", "cleaved RNA product abundance": 0.0489}

input: Which cleaved RNA product abundance is listed for ACAGACGAAGGAGCCGCAAAGAAGTTATTAAGGGATAATTAATCCCTCAATATAAATATCTCTCACTTATTTAAA ?
output: 0.759
